- SYSTEM UNDER TEST: T1, KAP1 S33-K434 (human, UniProt Q13263 33-434)
- T1 construct: KAP1 (TRIM28), human, UniProt Q13263, residues S33-K434 (RBCC domain); The crystal structures of shorter RBCC constructs show an antiparallel homodimer; also called KAP1 RBCC (S33-K434); KAP1 RBCC; source: E. coli BL-21 CodonPlus (DE3)-RP, purified (Ni-NTA, Ulp1, Mono Q)
- T1 sequence (Q13263 33-434): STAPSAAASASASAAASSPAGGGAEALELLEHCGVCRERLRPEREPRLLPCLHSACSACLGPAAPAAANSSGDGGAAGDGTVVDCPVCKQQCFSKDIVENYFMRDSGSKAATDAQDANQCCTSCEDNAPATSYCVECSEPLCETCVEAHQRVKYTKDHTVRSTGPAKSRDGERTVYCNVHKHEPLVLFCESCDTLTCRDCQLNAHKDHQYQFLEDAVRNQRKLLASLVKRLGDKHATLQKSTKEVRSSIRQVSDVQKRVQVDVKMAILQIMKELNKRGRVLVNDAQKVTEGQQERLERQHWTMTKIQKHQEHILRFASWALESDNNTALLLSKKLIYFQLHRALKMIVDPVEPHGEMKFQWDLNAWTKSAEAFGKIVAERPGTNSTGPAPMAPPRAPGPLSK
- PROTOCOL DESCRIPTION: co-IP; purified SMARCAD1 fragments (FLAG-CUE1,2, FLAG-CUE1) and KAP1 RBCC, 9.6μg each in 240μL, 4°C 1 hour; anti-FLAG M2 affinity gel 3 hours
- CONDITION PARAMETERS: both partners purified
REPORTED METRIC: binding result

- BINDER: "FLAG-CUE1,2 E167A (domain or fragment, human, UniProt Q9H4L7 95-347, looked up, SMARCAD1, human, UniProt Q9H4L7, CUE1,2 fragment S95-N347; source: E. coli BL-21 CodonPlus (DE3)-RIL, purified (Ni-NTA, Ulp1, Mono Q if required)) SSDSEDVVSPNCSNTVQEKTFNKDTVIIVSEPSEDEESQGLPTMARRNDDISELEDLSELEDLKDAKLQTLKALFPQRSDNDLLKLIESTSTMDGAIAAALLMFGDAGGGPRKRKLSSSSEPYEEDEFNDDQSIKKTRLDHGEESNESAESSSNWEKQESIVLKLQKEFPNFDKQELREVLKEHEWMYTEALESLKVFAEDQDMQYVSQSEVPNGKEVSSRSQNYPKNATKTKLKQKFSMKAQNGFNKKRKKN"
  MEASURED RESULT: "binds"
- BINDER: "FLAG-CUE1,2 D188A (domain or fragment, human, UniProt Q9H4L7 95-347, looked up, SMARCAD1, human, UniProt Q9H4L7, CUE1,2 fragment S95-N347; source: E. coli BL-21 CodonPlus (DE3)-RIL, purified (Ni-NTA, Ulp1, Mono Q if required)) SSDSEDVVSPNCSNTVQEKTFNKDTVIIVSEPSEDEESQGLPTMARRNDDISELEDLSELEDLKDAKLQTLKELFPQRSDNDLLKLIESTSTMAGAIAAALLMFGDAGGGPRKRKLSSSSEPYEEDEFNDDQSIKKTRLDHGEESNESAESSSNWEKQESIVLKLQKEFPNFDKQELREVLKEHEWMYTEALESLKVFAEDQDMQYVSQSEVPNGKEVSSRSQNYPKNATKTKLKQKFSMKAQNGFNKKRKKN"
  MEASURED RESULT: "binds"
- BINDER: "FLAG-CUE1,2 L196A (domain or fragment, human, UniProt Q9H4L7 95-347, looked up, SMARCAD1, human, UniProt Q9H4L7, CUE1,2 fragment S95-N347; source: E. coli BL-21 CodonPlus (DE3)-RIL, purified (Ni-NTA, Ulp1, Mono Q if required)) SSDSEDVVSPNCSNTVQEKTFNKDTVIIVSEPSEDEESQGLPTMARRNDDISELEDLSELEDLKDAKLQTLKELFPQRSDNDLLKLIESTSTMDGAIAAALAMFGDAGGGPRKRKLSSSSEPYEEDEFNDDQSIKKTRLDHGEESNESAESSSNWEKQESIVLKLQKEFPNFDKQELREVLKEHEWMYTEALESLKVFAEDQDMQYVSQSEVPNGKEVSSRSQNYPKNATKTKLKQKFSMKAQNGFNKKRKKN"
  MEASURED RESULT: "binds"
